Where do these numbers come from? They come from patent US12606528B2.

# Tested on: TNF release
# assayInfo: TNF assay: TNF release from LPS-stimulated human PBMCs (TNF ELISA)
# Format: cell-based
# protocolConditions: PBMC; human PBMCs; compounds 2 hours before LPS (10 ng/ml) for 18 hours; supernatant TNF ELISA; read-out: IC50 (TNF assay)
// reported IC50 per item

Please review the entries below; each comes with its answer.
- compound: "CCc1ccc(NS(=O)(=O)c2cc(S(C)(=O)=O)cc3c2OCC(=O)N3)cc1"
  measuredTarget: "TNF release"
  IC50: "> 10 µM"
- compound: "CCC1Oc2cc(S(=O)(=O)Nc3ccc(OC)cc3)c(Cl)cc2NC1=O (centres unmarked)"
  measuredTarget: "TNF release"
  IC50: "> 10 µM"
- compound: "O=c1[nH]ccc2cc(S(=O)(=O)c3ccc(Cl)cc3)ccc12"
  measuredTarget: "TNF release"
  IC50: "> 10 µM"
- compound: "CC1Oc2c(cc(Br)cc2S(=O)(=O)Nc2ccc(F)cc2F)N(C)C1=O (centres unmarked)"
  measuredTarget: "TNF release"
  IC50: "1 to 10 µM"

Read the next record carefully.
Recorded result, O=C1COc2cc(S(=O)(=O)Nc3ccc(C(F)(F)F)cc3Cl)c(Br)cc2N1 , IC50: > 10 µM

* * *

# Test system: NF-κB
# assayInfo: NF-κB assay: THP1-NF-κB-LUC cells, LPS-stimulated secreted luciferase
# Format: cell-based
# protocolConditions: THP1-NF-κB-LUC cells; compounds 2 hours before LPS (10 ng/mL) for 18 hours; secreted luciferase; read-out: IC50 (NF-κB assay)
parameterMeasured: IC50

- compound: "CCC1Oc2c(cc(Br)cc2S(=O)(=O)Nc2ccc(OC)cc2)N(C)C1=O (centres unmarked) [BC19935]"
  result: "< 100 nM"
- compound: "CCC1Oc2cc(S(=O)(=O)Nc3ccc(OC)cc3)c(Cl)cc2NC1=O (centres unmarked) [BC19211]"
  result: "100 to 1000 nM"

Recorded result, CC(=O)N1CCOc2cc(S(=O)(=O)Nc3ccc(C)c(F)c3)c(C)cc21 [BC181383] , IC50: 100 to 1000 nM

Recorded result, O=C1COc2cc(S(=O)(=O)NCc3ccc(F)cc3F)c(Br)cc2N1 [BC19393] , IC50: > 10000 nM

Recorded result, CCC1Oc2c(cc(Br)cc2S(=O)(=O)Nc2ccc(C)cc2)NC1=O (centres unmarked) [BC19234] , IC50: < 100 nM

* * *

// reported pIC50 per item
# System: TNF release
# assayInfo: TNF assay: TNF release from LPS-stimulated human PBMCs (TNF ELISA)
# Format: cell-based
# protocolConditions: PBMC; human PBMCs; compounds 2 hours before LPS (10 ng/ml) for 18 hours; supernatant TNF ELISA; read-out: IC50 (TNF assay)
pIC50: −log10 of the molar value.

pIC50 for TNF release with input Cc1ccc(NS(=O)(=O)c2cc3c(cc2Br)N(C)C(=O)C(C)O3)cc1Cl (stereo not drawn) [BC19797] equals 5.00 to 6.00

pIC50 for TNF release with input CCC1Oc2c(cc(Br)cc2S(=O)(=O)NC2CCCCC2)NC1=O (stereo not drawn) [BC19233] equals 5.00 to 6.00

* * *

# Tested on: NF-κB
# assayInfo: NF-κB assay: THP1-NF-κB-LUC cells, LPS-stimulated secreted luciferase
# Format: cell-based
# protocolConditions: THP1-NF-κB-LUC cells; compounds 2 hours before LPS (10 ng/mL) for 18 hours; secreted luciferase; read-out: IC50 (NF-κB assay)
// reported IC50 per item

Please review the entries below; each comes with its answer.
- compound: "COc1cccc2cc(S(=O)(=O)c3ccc(C)c(Cl)c3)c(=O)oc12 [BC18319]"
  IC50: "> 10 µM"
- compound: "Cc1ccc(NS(=O)(=O)c2cc3c(cc2Cl)NC(=O)C(C)O3)cc1F (stereo not drawn) [BC19700]"
  IC50: "< 0.1 µM"
- compound: "CCC1Oc2c(cc(Br)cc2S(=O)(=O)NC2CCC(O)CC2)NC1=O (stereo not drawn) [BC19378]"
  IC50: "> 10 µM"

Read the next record carefully.
Recorded result, O=c1[nH]ccc2cc(S(=O)(=O)c3cccc(F)c3)ccc12 [BC19520] , IC50: > 10 µM
